Reported IC50 is given for each of the following compounds.
TARGET: TNFα (Homo sapiens, UniProt P01375)
Sequence (P01375 77-233 limits assumed): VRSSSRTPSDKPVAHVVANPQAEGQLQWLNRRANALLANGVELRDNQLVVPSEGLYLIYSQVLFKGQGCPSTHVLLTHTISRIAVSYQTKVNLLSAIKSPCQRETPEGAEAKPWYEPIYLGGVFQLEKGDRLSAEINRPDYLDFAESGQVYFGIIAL
MEASUREMENT_DESCRIPTION: TNF induced HEK-Blue assay (NF-kB-driven secreted alkaline phosphatase reporter)
Assay type: cell-based
CONDITION_CONTEXT: TNFα 0.5 ng/mL, HEK-Blue-CD40L cells, 18 h; read-out: TNF induced HEK-Blue assay IC50 value
Description: TNF or CD40L-Induced HEK-Blue Assay Test compounds serially diluted in DMSO were plated in an assay plate (LABCYTE, Cat. # LP-0200) at final concentrations ranging from 0.004 μM to 25 μM. […] Secreted alkaline phosphatase expression was measured using QUANTI-Blue™ (INVIVOGEN, Cat. Code rep-qb1) according to manufacturer's specifications and the assay plate was read on a PerkinElmer Envision at 620 nm. […]

COMPOUND | IC50
Cc1nc2ccc(-c3cnc(C(C)(C)O)nc3)cc2c(N[C@H](C)c2cccc(OCCO)c2)c1Cl | < 1 µM
Cc1nc2ccc(-c3cnc(C(C)(C)O)nc3)cc2c(N[C@H](C)c2ccccc2)c1Cl | 10 to 25 µM
Cc1ccc2c(CCC(C)Nc3c(Cl)cnc4ccc(-c5cnc(C(C)(C)O)nc5)cc34)c[nH]c2c1 (racemic) | 10 to 25 µM
C[C@@H](Nc1c(Cl)cnc2ccc(-c3ccc(N4CCNCC4)nc3)cc12)c1ccccc1F | 1 to 10 µM
C[C@@H](Nc1c(Cl)cnc2ccc(-c3cnc(C(C)(C)O)nc3)cc12)c1cc(C2NC(=O)NC2=O)ccc1F (single isomer, unassigned) [Example 422] | < 1 µM
Cc1nc2ccccc2c(N[C@H](C)c2cc(-c3cccnc3)ccc2F)c1Cl | < 1 µM
CNC(=O)c1ccc(-c2ccc3nc(C)c(Cl)c(Nc4cc(C)ccc4C)c3c2)cn1 | < 1 µM
